meta.source: patent US7329737

- system-name: T1, hK1 (human tissue kallikrein 1), recombinant (human, UniProt P06870 25-262)
- T1 construct: Expressed in P. pastoris from KLK1 cDNA and purified; enzymatically active; also called KLK1; Recombinant (Pichia) Kallikrein
- assay-notes: SPR
quantity-kind: log10 of Kd (log10 of the value in nM)
// do not treat as linear: log10 of Kd, unit nM

binder	log10 of Kd
M0131-D12 (Fab, V domains shown) VH: EVQLLESGGGLVQPGGSLRLSCAASGFTFSWYNMYWVRQAPGKGLEWVSYIVPSGGATHYADSVKGRFTISRDNSKNTLYLQMNSLRAEDTAVYYCARALRGYSYGPRGYYYYGMDVWGQGTTVTVSS VL: AQSALTQPPSVSVAPGQTASISCSGNILDNSYASWFQQKPGQSPVMVIHRDNKRPSGIPERFSGSTSGNTATLTISGTQAVDEADYYCQAWDRTTGVFGTGTRLTVLR	1.26
M0104-D12 (Fab, V domains shown) VH: EVQLLESGGGLVQPGGSLRLSCAASGFTFSHYAMFWVRQAPGKGLEWVSSIWPSGGKTMYADSVKGRFTISRDNSKNTLYLQMNSLRAEDTATYYCARGGSYLAFDIWGQGTMVTVSS VL: DIQMTQSPSSLSASVGDRVTITCRASLSVSGYLNWYQHKPGRAPNLLIYATSSLQSGVPSRFSGSGSGTDFTLTVSSLQPEDLATYYCQQSYSSPYTFGQGTKVEIKG	1.79
M0099-C12 (Fab, V domains shown) VH: EVQLLESGGGLVQPGGSLRLSCAASGFTFSRYAMHWVRQAPGKGLEWVSSIWPSGGATFYADSVKGRFTISRDNSKNTLYLQMNSLRAEDTAVYYCATSPTLNAFHIWGQGTMVTVSS VL: AQSVLTQPASVSGSPGQSITISCTGTTSDVGGYKYVSWYQHHPGKVPKLIIYEVNHRPSGVSHRFSGSKSGNTASLIISALQAEDEADYYCYSYTSDSTPYVFGTGTKVTVL	1.11
M0102-H11 (Fab, V domains shown) VH: EVQLLESGGGLVQPGGSLRLSCAASGFTFSKYPMTWVRQAPGKGLEWVSSISSSGGKTQYADSVKGRFTISRDNSKNTLYLQMNSLRAEDTAVYYCTRGGSSTLYFMDVWGQGTTVTVSS VL: DIQMTQSPATLSLSPGERATLSCRASQSVSSYLAWYQQKPGQAPRLLIYGASSRATGIPDRFSGSGSGTDFTLTISSLEPEDFAVYYCQQRGGWPLTFGGGTKVEIRR	0.51

Consider now this further binder.
Given item M0107-D01 (Fab, V domains shown) VH: EVQLLESGGGLVQPGGSLRLSCAASGFTFSWYGMGWVRQAPGKGLEWVSVIRPSGGTTRYADSVKGRFTISRDNSKNTLYLQMNSLRAEDTAVYYCARGGRYYSLDYWGQGTLVTVSS VL: AQSELTQPASVSGPPGQSITISCTGTSSDVGGYNYVSWYQQHPGKAPKLIIYEVSNRPSGVSYRFSASKSDNTASLTISGVQAEDEADYYCSSYKRGGTYVFGTGTTVIVL , the value recorded as its log10 of Kd is 0.96
